// provenance: PubChem BioAssay (NCATS)

- Test system: HeLa
- TEST: Primary qHTS to identify gynecologic anti-cancer compounds using libraries of approved drugs and bioactive compounds (AID 1345084); further: nearly all actives have a fitted effect of over 55% in size
- MEASUREMENT CONDITIONS: Gynecologic cancer cell panel viability, ATPlite luminescence, 48 h; series mostly up to 57.5 µM
Records with an inconclusive call do not appear. The source made the active and inactive calls. The call rests on the fitted dose curve; in most records, active means well fitted cell-killing curve with a large enough effect; inconclusive means small, poorly fitted or top-dose-only effect, or effect the other way; inactive means flat fitted curve, though single readings scatter.
ASSAY METRIC: outcome

Some solved cases for reference:
1. Cc1cccc(C)c1NC(=O)c1ccc(N)cc1
inactive
2. CO/N=C(/C(=O)N[C@@H]1C(=O)N2C(C(=O)[O-])=C(C[n+]3ccn4ncccc43)CS[C@H]12)c1nsc(N)n1
inactive
3. CCC(=O)Oc1ccc2c(c1)CC[C@@H]1[C@@H]2CC[C@@]2(C)[C@H]1C[C@@H](OC(=O)CC)[C@@H]2OC(=O)CC
inactive
4. O=C(C1CCCCC1)N1CC(=O)N2CCCc3ccccc3C2C1 (stereo unspecified)
inactive
5. Cc1ccccc1C(=O)N1CC/C(=N\OS(=O)(=O)O)c2ccc(Cl)cc21
inactive

For every item in the list below, what is its measured outcome?
1. Oc1ccccc1-c1nnco1
2. O=C(O)c1ccccc1Nc1cc(Cl)ccc1C(=O)O
3. C/C(=C1\CCOC(=O)S1)N(C=O)Cc1cnc(C)nc1N
4. CCOC(=O)c1ccc(O)c(O)c1
5. CC(C)C(=O)Nc1cccc(C2CN3CCSC3=N2)c1 (stereo unspecified)
6. CC(C)NC(=O)c1ccc(C=O)cc1

result:
inactive
inactive
inactive
inactive
inactive
inactive

----------
- TEST: Primary qHTS for inhibitors of nuclear receptor binding SET domain protein 2 (NSD2) in an isogenic RCH-ACV NSD2 p.E1099K mutant (9B) (AID 1645876); further: nearly all actives have a fitted effect of over 70% in size
- MEASUREMENT CONDITIONS: RCH-ACV (leukaemia line) NSD2 E1099K (9B) viability, CellTiter-Glo, 72 h; series mostly up to 44.9 µM
Records with an inconclusive call do not appear. The source made the active and inactive calls. Calls come from the whole dose curve; as a rule, active = well fitted inhibition curve with a large enough effect; inconclusive = small, poorly fitted or top-dose-only effect; inactive = flat fitted curve, though single readings scatter.
Please answer using one outcome listed in T (active), F (inactive)

Past entries and their recorded results:
1) Cc1ccc(O)cc1
F
2) Cc1cc(=O)oc2cc(O[C@@H]3SC[C@@H](O)[C@H](O)[C@H]3O)ccc12
F
3) Nc1ccc(O)cc1
F
4) CCCCCCCCCCCCCCCCCCNC(=O)OC1CCN(C(=O)OC[C@H](COC(=O)N(Cc2cccc[n+]2CC)C(=O)c2ccccc2OC)OC)CC1
T
5) Cc1nc(C2CCCCC2)c(-c2ccc(S(N)(=O)=O)c(F)c2)o1
T
6) CCN1CCCC1CN (configuration not stated)
F
7) Cc1ccc2ccc(Cl)cc2n1
F
8) Cc1cccc(OCC(O)CNC(C)(C)C)c1C (configuration not stated)
F

query: Given O=C1Nc2ccccc2C1(c1ccc(O)cc1)c1ccc(O)cc1 , state the outcome it received in this test.
result: T

query: Given Cc1ccc(Cl)c(OCC(O)CNC(C)(C)C)c1 (configuration not stated) , state the outcome it received in this test.
result: F

query: Given Cc1ccc(C(C)OC(=O)C2(C)CCC(C(=O)O)C2(C)C)cc1 (configuration not stated) , state the outcome it received in this test.
result: F

query: Given CC(CCc1ccc2c(c1)OCO2)NN (configuration not stated) , state the outcome it received in this test.
result: F

----------
- TEST: Cell Viability - H-4-II-E (AID 543);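 further: cells exposed to compound for 40 hours; nearly all actives have a fitted effect of over 35% in size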
- MEASUREMENT CONDITIONS: H-4-II-E rat hepatoma viability; series mostly up to 92.2 µM
Inconclusive results are not listed. Active and inactive are the calls of the source. Calls come from the whole dose curve; as a rule, active = well fitted cell-killing curve with a large enough effect; inconclusive = small, poorly fitted or top-dose-only effect; inactive = flat fitted curve, though single readings scatter.
Please answer using one outcome listed in TRUE = active, FALSE = inactive

Past entries and their recorded results:
1) Nc1ccc(O)cc1
TRUE
2) COc1cc(C=O)ccc1O
FALSE
3) OCc1c[nH]c2ccccc12
FALSE
4) CCCCC(CC)COC(=O)c1ccccc1C(=O)O (configuration not stated)
FALSE
5) O=C(Oc1ccccc1)c1ccccc1O
FALSE

query: Given CCCCCCCCCCCCCCCC[n+]1ccccc1 , state the outcome it received in this test.
result: TRUE

query: Given CC(C)(c1ccc(O)cc1)c1ccc(O)cc1 , state the outcome it received in this test.
result: FALSE

query: Given C1=CC2C3C=CC(C3)C2C1 (configuration not stated) , state the outcome it received in this test.
result: FALSE
